Values from patent US20230091047A1

assay: in vitro; type: cell-based; conditions: human, HepG2 or HepG2.117 cells, 3-days incubation (unmarked values), ATPlite; mean value
assayMetric: CC50 at 3 days

Record COc1ccccc1-n1c(NC(C)C2CC2)nc2c(c1=O)CCN(C(=O)c1ccc(Cl)c(Cl)c1)C2 (stereo not shown) [Compound C47] . Reported CC50 at 3 days: 27.3 µM

Record COc1ccc(CNc2nc3c(c(=O)[nH]2)CCN(C(=O)c2ccc(Br)c(C#N)c2)C3)cc1 [Compound C105] . Reported CC50 at 3 days: > 50 µM

Record COc1ccccc1-n1c(N2CCOCC2)nc2c(c1=O)CCN(C(=O)c1ccc(Cl)c(Cl)c1)C2 [Compound C40] . Reported CC50 at 3 days: > 50 µM

Record COc1ccccc1-n1c(NCc2ccc3c(c2)OCO3)nc2c(c1=O)CCN(C(=O)c1ccc(Cl)c(Cl)c1)C2 [Compound C26] . Reported CC50 at 3 days: > 50 µM

* * *

This section presents compounds with their documented CC50 values.
tested on: HepG2 cells; test: in vitro; type: cell-based; settings: HepG2 or HepG2.117 cells, ATPlite, 3-days incubation (not marked with *), mean value; read-out: CC50 (μM, mean value)
API: value field is a number in µM; no unit string.

Here are 4 compounds together with their reported answers.
compound	CC50 [µM]
Cc1cc(-c2ncc[nH]2)ccc1-n1c(NC(C)C)nc2c(c1=O)C[C@@H](C)N(C(=O)c1ccc(Cl)c(Cl)c1)C2 (single isomer, unassigned) [Compound C399b]	27
Cc1c[nH]c(-c2ccc(-n3c(NC(C)C)nc4c(c3=O)C[C@@H](C)N(C(=O)c3ccc(Cl)c(Cl)c3)C4)c(Cl)c2)n1 (single isomer, unassigned) [Compound C455a]	17.6
CC(C)Nc1nc2c(c(=O)n1-c1ccc(-c3ncc[nH]3)cc1Cl)C[C@@H](C)N(C(=O)c1ccc(Cl)c(Cl)c1)C2 (single isomer, unassigned) [Compound C393b]	31.7
CNC(=O)c1ccc(-n2c(OC(C)C)nc3c(c2=O)C[C@@H](C)N(C(=O)c2ccc(Cl)c(Cl)c2)C3)c(Cl)c1 [Compound C403b]	31.1

Record CNC(=O)c1ccc(-n2c(NC(C)C)nc3c(c2=O)C[C@@H](C)N(C(=O)c2ccc(Cl)c(Cl)c2)C3)c(C(C)C)c1 (single isomer, unassigned) [Compound C420a] . Reported CC50: 21.7

* * *

test system: HBV (HepG2.117 cell line, inducibly HBV producing); assay: Anti-HBV activity: intracellular HBV DNA by real-time PCR in HepG2.117 cells after 3 days of treatment; format: cell-based, hepatitis B virus; conditions: Hepatitis B virus, HepG2.117, 72 h, HepG2.117 cells, 3 days of treatment, intracellular HBV DNA by real-time PCR; mean value; read-out: EC50 (μM, mean value)
Categories are assigned from the measured EC50 using these intervals: bucket 1 = under 0.6 µM, bucket 2 = from 0.6 µM up to 4 µM, bucket 3 = 4 µM and over

For orientation, consider the following solved cases.
molecule	cat
CNC(=O)c1ccc(-n2c(NC(C)c3ccnn3C)nc3c(c2=O)C[C@@H](C)N(C(=O)c2ccc(Cl)c(Cl)c2)C3)cc1 (some centres unmarked) [Compound C372]	bucket 3
COc1ccc(CNc2nc3c(c(=O)n2-c2ccc(N4CCOCC4)cc2)CCN(C(=O)c2ccc(Cl)c(Cl)c2)C3)cc1 [Compound C128]	bucket 2
CNC(=O)[C@H]1CC[C@@H](n2c(NC(C)C)nc3c(c2=O)C[C@@H](C)N(C(=O)c2ccc(Cl)c(Cl)c2)C3)CC1 [Compound C280]	bucket 1
COc1ccc(C(CCO)Nc2nc3c(c(=O)[nH]2)CCN(C(=O)c2ccc(Cl)c(Cl)c2)C3)cc1 (centres unmarked) [Compound C92]	bucket 3

Input line: Lab log: CC(C)Nc1nc2c(c(=O)n1-c1ccncc1)CCN(C(=O)c1ccc(Cl)c(Cl)c1)C2 [Compound C122] — assign EC50 category
Output line: bucket 2

Input line: Lab log: CC(C)Nc1nc2c(c(=O)n1-c1ccc(S(C)(=O)=O)cc1)[C@H](C)CN(C(=O)c1ccc(Cl)c(Cl)c1)C2 (single isomer, unassigned) [Compound C154B] — assign EC50 category
Output line: bucket 1
